Reported DC50 by item:
# experimental_system: KAT2A (Homo sapiens)
# assay_protocol: KAT2A degradation, Western Blot (Jess), NCI-H1048 cells
# Assay type: cell-based
# Set-up: degrader, Western blot (Jess)
# cond: NCI-H1048 cells, KAT2A, 24 h, Western Blot, vs DMSO; read-out: KAT2A NCI-H1048 DC50

# count of solved cases: 6
CN1C[C@H](Nc2cnn(C)c(=O)c2Cl)C[C@H](c2ccc(C(=O)N3CCC(Oc4ccc(C5CCC(=O)NC5=O)c(F)c4)CC3)cc2)C1 (stereo partly drawn) [Compound 203]: < 1 nM
CN1C[C@H](Nc2cnn(C)c(=O)c2Br)C[C@H](c2ccc(C(=O)N3CCC(c4ccc5c(C6CCC(=O)NC6=O)nccc5c4)CC3)cc2)C1 (stereo partly drawn) [Compound 377]: < 1 nM
CN1C[C@H](Nc2cnn(C)c(=O)c2Br)C[C@H](c2ccc(C(=O)N3CCC4(CC3)CCN(c3ccc(C5CCC(=O)NC5=O)c(F)c3)CC4)cc2)C1 (stereo partly drawn) [Compound 157]: < 1 nM
COc1cc(N2CCC3(CCN(C(=O)c4ccc([C@H]5C[C@@H](Nc6cnn(C)c(=O)c6Br)CN(C)C5)cc4)CC3)CC2)c(F)cc1C1CCC(=O)NC1=O (stereo partly drawn) [Compound 278]: 1 to 30 nM
COc1cc(N2CCC3(CCN(C(=O)c4ccc([C@H]5C[C@@H](Nc6cnn(C)c(=O)c6Br)CN(C)C5)cc4)CC3)CC2)c(C)cc1C1CCC(=O)NC1=O (stereo partly drawn) [Compound 284]: < 1 nM
CN1C[C@H](Nc2cnn(C)c(=O)c2Cl)C[C@H](c2ccc(C(=O)N3CCC4(CC3)CCN(c3ccc(C5CCC(=O)NC5=O)nc3)CC4)cc2)C1 (stereo partly drawn) [Compound 233]: < 1 nM

Q: Tell me measured DC50 for Cc1c(N[C@@H]2C[C@H](c3ccc(C(=O)N4CCC5(CC4)CCN(c4cnc(C6CCC(=O)NC6=O)c(F)c4)CC5)cc3)CN(C)C2)cnn(C)c1=O (stereo partly drawn) [Compound 272] please.
Ans: < 1 nM

Q: Tell me measured DC50 for COc1cc(N2CCC3(CCN(C(=O)c4ccc([C@H]5C[C@@H](Nc6cnn(C)c(=O)c6Cl)CN(C)C5)cc4)CC3)CC2)c(F)cc1C1CCC(=O)NC1=O (stereo partly drawn) [Compound 279] please.
Ans: < 1 nM

Q: Tell me measured DC50 for Cc1c(N[C@@H]2C[C@H](c3ccc(C(=O)N4CCC5(CC4)CCN(c4ccc6c(C7CCC(=O)NC7=O)nccc6c4)CC5)cc3)CN(C)C2)cnn(C)c1=O (stereo partly drawn) [Compound 295] please.
Ans: < 1 nM

====

# experimental_system: UniProt Q92831
# Sequence (Q92831 whole entry): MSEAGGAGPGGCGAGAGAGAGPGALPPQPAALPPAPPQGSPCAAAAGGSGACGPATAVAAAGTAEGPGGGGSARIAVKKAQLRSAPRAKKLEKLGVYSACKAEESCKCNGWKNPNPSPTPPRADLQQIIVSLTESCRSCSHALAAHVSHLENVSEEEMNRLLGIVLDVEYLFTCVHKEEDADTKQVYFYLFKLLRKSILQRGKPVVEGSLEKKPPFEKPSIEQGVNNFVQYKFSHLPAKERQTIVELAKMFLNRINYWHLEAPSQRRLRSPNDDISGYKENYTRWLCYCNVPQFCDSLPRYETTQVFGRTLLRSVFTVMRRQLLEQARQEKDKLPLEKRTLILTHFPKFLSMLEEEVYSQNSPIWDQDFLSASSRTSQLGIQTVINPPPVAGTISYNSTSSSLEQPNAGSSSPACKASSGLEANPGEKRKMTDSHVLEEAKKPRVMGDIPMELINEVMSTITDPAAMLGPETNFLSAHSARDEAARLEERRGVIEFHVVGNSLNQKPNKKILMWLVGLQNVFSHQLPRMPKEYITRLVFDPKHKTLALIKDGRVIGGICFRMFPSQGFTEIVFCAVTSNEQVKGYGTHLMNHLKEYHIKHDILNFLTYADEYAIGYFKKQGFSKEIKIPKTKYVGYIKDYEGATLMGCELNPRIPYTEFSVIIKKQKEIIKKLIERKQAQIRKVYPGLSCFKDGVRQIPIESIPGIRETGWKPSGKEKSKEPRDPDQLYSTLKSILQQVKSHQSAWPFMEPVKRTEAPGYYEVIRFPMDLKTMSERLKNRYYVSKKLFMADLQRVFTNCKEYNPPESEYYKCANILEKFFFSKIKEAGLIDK
# assay_protocol: KAT2B degradation, Western Blot (Jess), NCI-H1048 cells
# Format: cell-based
# Set-up: degrader, Western blot (Jess)
# cond: NCI-H1048 cells, KAT2B, 24 h, Western Blot, vs DMSO; read-out: KAT2B NCI-H1048 DC50
readout_kind: DC50

# count of solved cases: 5
CN1C[C@H](Nc2cnn(C)c(=O)c2Br)C[C@H](c2ccc(C(=O)N3CC(c4cccc(C5CCC(=O)NC5=O)c4)C3)cc2)C1 (stereo partly drawn): > 30 nM
CN1C[C@H](Nc2cnn(C)c(=O)c2Cl)C[C@H](c2ccc(CN3CCN(c4cc(C5CCC(=O)NC5=O)c(F)cc4F)CC3)cc2)C1 (stereo partly drawn): > 30 nM
CN1C[C@H](Nc2cnn(C)c(=O)c2Br)C[C@H](c2ccc(C(=O)N3CCC4(CC3)CCN(c3cccc5c3C(=O)N(C3CCC(=O)NC3=O)C5=O)CC4)cc2)C1 (stereo partly drawn): 1 to 30 nM
CN1C[C@H](Nc2cnn(C)c(=O)c2Cl)C[C@H](c2ccc(C(=O)N3CCC4(CC3)CCN(c3ncc(C5CCC(=O)NC5=O)cn3)CC4)cc2)C1 (stereo partly drawn): < 1 nM
Cc1cc(OC2CCN(Cc3ccc([C@H]4C[C@@H](Nc5cnn(C)c(=O)c5Br)CN(C)C4)cc3)CC2)ccc1C1CCC(=O)NC1=O (stereo partly drawn): > 30 nM

Please examine the following record next.
Q: Tell me measured DC50 for Cc1cc(N2CCC(N3CCN(C(=O)c4ccc([C@H]5C[C@@H](Nc6cnn(C)c(=O)c6Br)CN(C)C5)cc4)CC3)CC2)ccc1C1CCC(=O)NC1=O (stereo partly drawn) please.
Ans: > 30 nM

====

Reported DC50 by item:
# experimental_system: KAT2A (Homo sapiens)
# assay_protocol: KAT2A degradation, Western Blot (Jess), MOLM-13 cells
# Format: cell-based
# Design: degrader, Western blot
# cond: MOLM-13 cells, KAT2A, 24 h, Western Blot, vs DMSO; read-out: KAT2A MOLM-13 DC50
# Text: MOLM-13 cells or NCI-H1048 cells were used for Western Blot analysis of KAT2A degradation. KAT2B degradation can be measured in a similar manner with NCI-H1048 cells. […] MOLM-13 cells or NCI-H1048 cells were washed with PBS, then lysed with RIPA buffer containing 1×protease and phosphatase inhibitors (SantaCruz Biotechnologies Cat #sc-24948A). […] Protein was quantified via Bradford assay. […] Signal was detected by chemiluminescence. […]

CN1C[C@H](Nc2cnn(C)c(=O)c2Cl)C[C@H](c2ccc(C(=O)N3CCN(Cc4ccc(C(=O)Nc5cccc6c5C(=O)N(C5CCC(=O)NC5=O)C6=O)cc4)CC3)cc2)C1 (stereo partly drawn) [Compound 46]: 1 to 30 nM
CN1C[C@H](Nc2cnn(C)c(=O)c2Br)C[C@H](c2ccc(CN3CCC(c4ccc5c(c4)C(=O)N(C4CCC(=O)NC4=O)C5=O)C3)cc2)C1 (stereo partly drawn) [Compound 130]: 1 to 30 nM

Q: Tell me measured DC50 for CN1C[C@H](Nc2cnn(C)c(=O)c2Br)C[C@H](c2ccc(C(=O)N3CCN(Cc4ccc(N5CCC(=O)NC5=O)cc4)CC3)cc2)C1 [Compound 102] please.
Ans: > 30 nM

Q: Tell me measured DC50 for Cc1cc(N2CCC3(CCN(Cc4ccc([C@H]5C[C@@H](Nc6cnn(C)c(=O)c6Br)CN(C)C5)cc4)CC3)CC2)ccc1C1CCC(=O)NC1=O (stereo partly drawn) [Compound 166] please.
Ans: < 1 nM

Q: Tell me measured DC50 for CN1C[C@H](Nc2cnn(C)c(=O)c2Br)C[C@H](c2ccc(C(=O)N(C)CCCCC#CCCCOc3cccc4c3C(=O)N(C3CCC(=O)NC3=O)C4=O)cc2)C1 (stereo partly drawn) [Compound 8] please.
Ans: 1 to 30 nM

Q: Tell me measured DC50 for Cc1cc(OC2CCN(C(=O)c3ccc([C@H]4C[C@@H](Nc5cnn(C)c(=O)c5Br)CN(C)C4)cc3)CC2)ccc1C1CCC(=O)NC1=O (stereo partly drawn) [Compound 114] please.
Ans: < 1 nM

====

Reported DC50 by item:
# experimental_system: UniProtKB Q92830
# assay_protocol: KAT2A degradation, Western Blot (Jess), NCI-H1048 cells
# Type: cell-based
# Set-up: degrader, Western blot (Jess)
# cond: NCI-H1048 cells, KAT2A, 24 h, Western Blot, vs DMSO; read-out: KAT2A NCI-H1048 DC50

# count of solved cases: 5
CN1C[C@H](Nc2cnn(C)c(=O)c2Cl)C[C@H](c2ccc(C(=O)N3CCC4(CC3)CCN(c3ccc5c(c3)oc(=O)n5C3CCC(=O)NC3=O)CC4)cc2)C1 (stereo partly drawn) [Compound 209]: < 1 nM
C[C@H](Nc1nn(C)c(=O)c2ncccc12)[C@H](c1ccc(C(=O)N2CCC3(CC2)CCN(c2ccc(C4CCC(=O)NC4=O)cc2)CC3)cc1)N(C)C (stereo partly drawn) [Compound 430]: < 1 nM
Cc1cc(N2CC3(CCN(C(=O)c4ccc([C@H]5C[C@@H](Nc6cnn(C)c(=O)c6Br)CN(C)C5)cc4)CC3)C2)ccc1C1CCC(=O)NC1=O (stereo partly drawn) [Compound 291]: < 1 nM
COc1cc(N2CCC3(CCN(C(=O)c4ccc([C@H]5C[C@@H](Nc6cnn(C)c(=O)c6Br)CN(C)C5)cc4)CC3)CC2)ccc1C1CCC(=O)NC1=O (stereo partly drawn) [Compound 318]: < 1 nM
CN1C[C@H](Nc2cnn(C)c(=O)c2Cl)C[C@H](c2ccc(CN3CCN(c4cc(C5CCC(=O)NC5=O)ccn4)CC3)cc2)C1 (stereo partly drawn) [Compound 356]: 1 to 30 nM

Please examine the following record next.
Q: Retrieve DC50 on UniProtKB Q92830; query CN1C[C@H](Nc2cnn(C)c(=O)c2Br)C[C@H](c2ccc(C(=O)N3CCC4(CC3)CCN(c3ccn(C5CCC(=O)NC5=O)c(=O)c3)CC4)cc2)C1 (stereo partly drawn) [Compound 217]
Ans: 1 to 30 nM

====

# experimental_system: KAT2A (Homo sapiens, UniProt Q92830)
# Sequence (Q92830 whole entry): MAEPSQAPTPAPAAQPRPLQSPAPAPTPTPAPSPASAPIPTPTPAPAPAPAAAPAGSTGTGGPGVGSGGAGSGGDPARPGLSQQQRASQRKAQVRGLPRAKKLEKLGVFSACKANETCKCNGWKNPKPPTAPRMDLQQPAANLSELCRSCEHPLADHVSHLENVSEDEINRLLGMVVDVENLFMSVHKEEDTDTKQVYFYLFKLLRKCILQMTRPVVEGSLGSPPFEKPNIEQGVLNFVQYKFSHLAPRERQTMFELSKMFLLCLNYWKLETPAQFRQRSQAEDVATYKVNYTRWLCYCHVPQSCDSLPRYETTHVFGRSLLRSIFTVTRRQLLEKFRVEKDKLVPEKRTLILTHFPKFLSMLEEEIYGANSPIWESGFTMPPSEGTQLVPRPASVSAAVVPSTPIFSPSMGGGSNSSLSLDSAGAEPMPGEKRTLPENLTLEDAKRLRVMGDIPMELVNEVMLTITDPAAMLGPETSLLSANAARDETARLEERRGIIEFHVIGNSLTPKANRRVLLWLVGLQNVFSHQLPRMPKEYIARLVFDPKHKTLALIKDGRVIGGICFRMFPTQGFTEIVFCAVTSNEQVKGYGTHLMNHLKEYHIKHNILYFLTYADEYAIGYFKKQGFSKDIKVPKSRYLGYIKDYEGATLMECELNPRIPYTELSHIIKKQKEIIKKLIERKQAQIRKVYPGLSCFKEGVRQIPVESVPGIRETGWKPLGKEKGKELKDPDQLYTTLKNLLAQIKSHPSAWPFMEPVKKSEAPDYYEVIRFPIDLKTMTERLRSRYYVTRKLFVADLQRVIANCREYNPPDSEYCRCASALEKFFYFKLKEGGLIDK
# assay_protocol: KAT2A degradation, Western Blot (Jess), MOLM-13 cells
# Assay type: cell-based
# Design: degrader, Western blot
# cond: MOLM-13 cells, KAT2A, 24 h, Western Blot, vs DMSO; read-out: KAT2A MOLM-13 DC50
# Text: MOLM-13 cells or NCI-H1048 cells were used for Western Blot analysis of KAT2A degradation. KAT2B degradation can be measured in a similar manner with NCI-H1048 cells. […] MOLM-13 cells or NCI-H1048 cells were washed with PBS, then lysed with RIPA buffer containing 1×protease and phosphatase inhibitors (SantaCruz Biotechnologies Cat #sc-24948A). […] Protein was quantified via Bradford assay. […] Signal was detected by chemiluminescence. […]
readout_kind: DC50

# count of solved cases: 5
CN1C[C@H](Nc2cnn(C)c(=O)c2Br)C[C@H](c2ccc(C(=O)N(C)C3CCN(c4cccc5c4C(=O)N(C4CCC(=O)NC4=O)C5=O)CC3)cc2)C1 (some centres unmarked) [Compound 13]: 1 to 30 nM
CN1C[C@H](Nc2cnn(C)c(=O)c2Cl)C[C@H](c2ccc(CN3CCN(c4ccc5c(c4)C(=O)N(C4CCC(=O)NC4=O)C5=O)CC3)cc2)C1 (some centres unmarked) [Compound 175]: < 1 nM
Cc1ccc(OC2CCN(Cc3ccc([C@H]4C[C@@H](Nc5cnn(C)c(=O)c5Br)CN(C)C4)cc3)CC2)cc1C1CCC(=O)NC1=O (some centres unmarked) [Compound 122]: 1 to 30 nM
CN1C[C@H](Nc2cnn(C)c(=O)c2Cl)C[C@H](c2ccc(CN3Cc4cc5c(cc4C3)C(=O)N(C3CCC(=O)NC3=O)C5=O)cc2)C1 (some centres unmarked) [Compound 164]: 1 to 30 nM
CN1C[C@H](Nc2cnn(C)c(=O)c2Br)C[C@H](c2ccc(C(=O)N3CCC(c4ccc5c(c4)CN(C4CCC(=O)NC4=O)C5=O)CC3)cc2)C1 (some centres unmarked) [Compound 73]: 1 to 30 nM

Q: Tell me measured DC50 for CN1C[C@H](Nc2cnn(C)c(=O)c2Br)C[C@H](c2ccc(C(=O)N3CCC(N4CCN(C5CCC(=O)NC5=O)CC4)CC3)cc2)C1 (some centres unmarked) [Compound 161] please.
Ans: > 30 nM

Q: Tell me measured DC50 for CN1C[C@H](Nc2cnn(C)c(=O)c2Br)C[C@H](c2ccc(CN3CCN(c4ccc5c(c4)C(=O)N(C4CCC(=O)NC4=O)C5=O)CC3)cc2)C1 (some centres unmarked) [Compound 28] please.
Ans: < 1 nM

Q: Tell me measured DC50 for CN1C[C@H](Nc2cnn(C)c(=O)c2Br)C[C@H](c2ccc(C(=O)N3CCN(CC4CCN(c5cccc6c5C(=O)N(C5CCC(=O)NC5=O)C6=O)CC4)CC3)cc2)C1 (some centres unmarked) [Compound 9] please.
Ans: < 1 nM

Q: Tell me measured DC50 for CN1C[C@H](Nc2cnn(C)c(=O)c2Br)C[C@H](c2ccc(CN3CCC4(CC3)CN(c3ccc5c(c3)C(=O)N(C3CCC(=O)NC3=O)C5=O)C4)cc2)C1 (some centres unmarked) [Compound 108] please.
Ans: < 1 nM

Q: Tell me measured DC50 for CN1C[C@H](Nc2cnn(C)c(=O)c2)C[C@H](c2ccc(CN3CCC(c4ccc5c(c4)CN(C4CCC(=O)NC4=O)C5=O)CC3)cc2)C1 (some centres unmarked) [Compound 85] please.
Ans: > 30 nM

Q: Tell me measured DC50 for CN1C[C@H](Nc2cnn(C)c(=O)c2Br)C[C@H](c2ccc(CN3CC(Oc4cccc(C5CCC(=O)NC5=O)c4)C3)cc2)C1 (some centres unmarked) [Compound 184] please.
Ans: 1 to 30 nM
